The entries below come with measured DC50 values attached.
- systemTested: ER-α (Homo sapiens)
- Construct: endogenous in cells; host or cells: MCF-7
- Sequence (P03372 whole entry): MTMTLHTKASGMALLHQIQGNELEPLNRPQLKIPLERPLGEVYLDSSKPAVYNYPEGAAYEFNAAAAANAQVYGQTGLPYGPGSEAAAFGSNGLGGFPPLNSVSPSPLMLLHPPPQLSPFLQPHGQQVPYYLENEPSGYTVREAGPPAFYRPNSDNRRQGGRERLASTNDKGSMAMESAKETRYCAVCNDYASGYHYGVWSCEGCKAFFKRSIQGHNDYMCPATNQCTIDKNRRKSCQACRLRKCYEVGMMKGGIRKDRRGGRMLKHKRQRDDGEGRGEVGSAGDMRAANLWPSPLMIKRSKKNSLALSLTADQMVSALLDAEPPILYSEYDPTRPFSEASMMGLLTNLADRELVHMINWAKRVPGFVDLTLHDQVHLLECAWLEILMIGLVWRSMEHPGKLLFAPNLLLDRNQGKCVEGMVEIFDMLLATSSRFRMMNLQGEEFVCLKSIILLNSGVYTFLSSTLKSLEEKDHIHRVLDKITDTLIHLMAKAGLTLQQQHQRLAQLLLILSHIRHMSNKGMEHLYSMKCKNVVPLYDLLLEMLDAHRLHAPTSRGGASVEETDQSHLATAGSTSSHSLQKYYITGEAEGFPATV
- assayRemarks: ER-α In Cell Western Assay (ER1D5)
- Type: cell-based
- protocolConditions: MCF-7 cells, ER1D5 antibody, 4 or 24 hr post compound addition; read-out: ER In-Cell Western Assay (ER1D5); IC50

A selection of reference data follows.
INSERT INTO results (compound, systemtested, measurename, recordedresult) VALUES
  ('C#Cc1ccc(C2=C(C)c3cc(O)ccc3OC2c2ccc(OC[C@H](C)N3CC[C@@H](C)C3)cc2)cc1 (stereo partly drawn)', 'ER-α (Homo sapiens)', 'DC50', '> 1 nM'),
  ('CC1=C(c2cccc(O)c2)C(c2ccc(OCCN3CCC(C)CC3)cc2)Oc2ccc(O)cc21 (stereo not drawn)', 'ER-α (Homo sapiens)', 'DC50', '≤ 1 nM'),
  ('CC1=C(c2cccc(O)c2)C(c2ccc(OCCN3CCCC3)cc2)Oc2cc(O)ccc21 (stereo not drawn)', 'ER-α (Homo sapiens)', 'DC50', '≤ 1 nM');

Q: Supply DC50 value. Item: CC1=C(c2cccc(F)c2)C(c2ccc(OC[C@H](C)N3CC[C@@H](C)C3)cc2)Oc2ccc(O)cc21 (stereo partly drawn)
A: ≤ 1 nM

Q: Supply DC50 value. Item: CC1=C(c2cccc(O)c2)C(c2ccc(OCCN3CCCC3)cc2F)Oc2ccc(O)cc21 (stereo not drawn)
A: ≤ 1 nM

Q: Supply DC50 value. Item: CC1=C(c2ccc(O)cc2)C(c2ccc(OC[C@H](C)N3CC[C@@H](C)C3)cc2)Oc2ccc(O)cc21 (stereo partly drawn)
A: ≤ 1 nM
